Some molecules, each annotated with its measured pIC50.
Assay: Antagonist activity at CCR2 in human monocytes assessed as reduction of chemotaxis in presence of […] BSA
pIC50: −log10 of the molar value.
Readout kind: pIC50

>>> numeric_result("CCS(=O)(=O)C[C@@H]1C[C@H](N(C)C(C)C)CC[C@@H]1N1CC[C@H](NC(=O)c2cccc(C(F)(F)F)c2)C1=O")
9.22
>>> numeric_result("CC(C)N(C)[C@@H]1CC[C@H](N2CC[C@H](NC(=O)c3cccc(C(F)(F)F)c3)C2=O)[C@H](CS(=O)(=O)C(C)(C)C)C1")
9.70
>>> numeric_result("CC(C)N(C)[C@@H]1CC[C@H](N2CC[C@H](NC(=O)c3cccc(C(F)(F)F)c3)C2=O)[C@H](CS(C)(=O)=O)C1")
8.59
>>> numeric_result("CC(C)N(C)[C@@H]1CC[C@H](N2CC[C@H](NC(=O)c3cccc(C(F)(F)F)c3)C2=O)[C@H](CS(=O)(=O)C(C)C)C1")
9.70
